- testedOn: T1, full-length hEGFRvIII on cells (human, UniProt P00533 298-1210)
- T1 construct: Expressed from vectors in HEK293, U87, B16F10.9, U251 and MMT 060562 cells; also called HEK293/EGFRvIII; HEK293/hEGFRvIII
- assayExplanation: FACS, HEK293/EGFRvIII cells, directly labeled antibody
Let's look at some binders and their measured Ratio (EGFRvIII MFI/parental MFI).
measuredProperty: Ratio (EGFRvIII MFI/parental MFI)

INSERT INTO results (binder, measuredproperty, endpointvalue) VALUES
  ('H1H1912N (antibody, human IgG1, V domains shown, Human IgG1 Fc; also called H2M1912N (same variable domains)) VH: EVQLVESGGGLVQPGRSLRLSCAASGFTFDDYAMHWVRQVPGKGLEWVSGISWNSGSIGYADSVKGRFTISRDNAKNSLYLQMNSLRAEDTALYYCAKDIHDYGKDYYYYYGMDVWGQGTTVTVSS VL: EIALTQSPGTLSLSPGERATLSCRASQSVSSTYLAWYQQKPGQAPRLLIYGASSRATGIPDRFSGSGSGTDFTLTISRLEPEDFAVYYCQQYDSSPITFGQGTRLEIK', 'Ratio (EGFRvIII MFI/parental MFI)', 32.7),
  ('H1H1911N (antibody, human IgG1, V domains shown, Human IgG1 Fc; also called H2M1911N (same variable domains)) VH: QVQLVESGGGVVQPGRSLRLSCAASGFTFSRYGIHWVRQAPGKGLEWVAVIWHDGSNKYYADSVKGRFTISRDNSKNTLYLQMTSLRAEDTAVYYCARDGLEIRDHYYYGMDVWGQGTTVTVSS VL: DIQMTQSPSTLSASVGDRVTITCRASQSTSSWLAWYQQKPGKAPTLLIYKASSLESGVPSKFSGSGSGTEFTLTISSLQPDDFATYYCQQYNRYSRTFGQGTKVEIK', 'Ratio (EGFRvIII MFI/parental MFI)', 15.3),
  ('H1H1915N (antibody, human IgG1, V domains shown, Human IgG1 Fc; also called H2M1915N (same variable domains)) VH: QVQLVESGGGVVQPGRSLRLSCAASGFTFSAYAMHWVRQAPGKGLEWVAVIWYDGSNKNYADSVKGRFTVSRDNSKNTLYLEMNSLRAEDTAVYYCARDLMVGVTNYWGQGTLVTVST VL: DVVMTQSPLSLPVALGQPASISCRSSQSLVYTDGNTYLNWFHQRPGQSPRRLIYKVSNRDSGVPDRFTGSGSGTDFTLKISRVEAEDVGVFYCMQGSHWPPYTFGQGTKLEIK', 'Ratio (EGFRvIII MFI/parental MFI)', 21.2),
  ('H1H1913N (antibody, human IgG1, V domains shown, Human IgG1 Fc; also called H3M1913N (same variable domains)) VH: QVQLQQWGAGLLKPSETLSLTCAVYGGSFSGDYWSWIRQSPGKGLEWIGEINHSGSTNYNPSLKSRVTISIDTSKNQFSLKLSSVTAADTAVYYCARGGGDYYYGMDVWGLGTTVTVSS VL: AIQMTQSPSSLSASVGDRVTITCRASQGIGNDLGWYQQKPGKAPNLLIYATSSLQSGVPSRFSGSGSGTDFTLTISSLQPEDFATYYCLQDYNYPWTFGQGTKVEIK', 'Ratio (EGFRvIII MFI/parental MFI)', 49.8);
